# target_or_test_system: full-length proMMP9(1-707) (SEQ ID NO:1) (Homo sapiens, UniProt P14780, R574P)
# Construct: made in house; host or cells: HEK293 (proMMP9, secreted); E. coli (MMP3)
# Sequence (P14780 20-707 R574P): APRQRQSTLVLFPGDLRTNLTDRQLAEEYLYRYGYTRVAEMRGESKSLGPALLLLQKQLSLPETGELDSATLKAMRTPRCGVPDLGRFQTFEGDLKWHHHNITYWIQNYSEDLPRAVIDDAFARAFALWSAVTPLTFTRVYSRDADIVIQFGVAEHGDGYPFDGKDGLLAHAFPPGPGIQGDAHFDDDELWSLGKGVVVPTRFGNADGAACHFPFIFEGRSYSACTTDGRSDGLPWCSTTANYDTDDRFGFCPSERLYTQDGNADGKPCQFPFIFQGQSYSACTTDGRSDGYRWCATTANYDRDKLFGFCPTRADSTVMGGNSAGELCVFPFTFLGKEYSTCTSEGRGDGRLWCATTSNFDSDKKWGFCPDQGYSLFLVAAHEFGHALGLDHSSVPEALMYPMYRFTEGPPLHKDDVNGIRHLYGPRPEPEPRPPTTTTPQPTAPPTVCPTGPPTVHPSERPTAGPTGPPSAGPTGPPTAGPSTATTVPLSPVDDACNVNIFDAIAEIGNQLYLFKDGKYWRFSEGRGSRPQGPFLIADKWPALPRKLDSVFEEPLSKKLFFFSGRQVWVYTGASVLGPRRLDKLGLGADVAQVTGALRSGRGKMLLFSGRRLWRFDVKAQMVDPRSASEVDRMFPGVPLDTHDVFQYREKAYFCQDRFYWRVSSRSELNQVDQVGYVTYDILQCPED
# assay_remarks: proMMP9/MMP3 P126 Activation Assay
# Format: biochemical
# measurement_conditions: 20 nM proMMP9, 20 nM MMP3, 80 min 37° C.
Please provide measured IC50 for the entries that follow.
Numbers only, in nM.

- Cc1nc(C(=O)NC2CCN(C(C)C)CC2)sc1-c1csc(Nc2cc(C(N)=O)ccc2OC(C)C)n1: 81
- Cc1nc(N)sc1-c1csc(Nc2cc(S(C)(=O)=O)ccc2OC(C)C)n1: 410

Read the entry `Cc1nc(C)c(-c2csc(Nc3cc(C(N)=O)ccc3OC(C)(C)C)n2)s1` and write its reported IC50.
2500

The reported measurements were obtained from patent US20120129842A1.
